I'd be grateful if you could share measured TGI for these entries.
# System: NCI/ADR-RES ovarian
# experimentNotes: NCI tumour cell line growth inhibition, 48 h

Entry Cn1c(=O)c(-c2ccccc2)c(O)c2ccccc21 ; TGI = > 100 µM

In plain terms, N#C/C(C(=O)Nc1ccc(Cl)cc1)=C(/N)N1CCCC1 has a documented TGI of > 100 µM

Documented TGI of CN(C)CCNC(=O)c1cc(Cl)cc2ccc(-c3ccccc3)nc12 : 10.9 µM

Per the record, COc1ccc2cc(-c3c(-c4ccncc4)nc(-c4ccc(S(C)(=O)=O)cc4C)n3C)ccc2c1 has TGI of > 25 µM

Documented TGI of COc1cc2c(=O)n(CCN)c3c4cc5c(cc4ccc3c2cc1OC)OCO5 : 3.6 µM

TGI recorded for this molecule, Cc1[nH]c(=O)nc(NCCNCCO)c1C(=O)Nc1cccc2cc3ccccc3cc12 , is > 100 µM

Per the records, this molecule ( Nc1nc(Cl)cc(NCC2(O)CC2)n1 ) has TGI equal to > 100 µM

For record O=P(O)(O)c1ccccc1Oc1ccccc1 the listed TGI is > 100 µM

Record CC(C)C(=O)C(C)(C)CCc1ccccn1 , field TGI: > 100 µM

Data point: COc1ccc(OC2OC(CO)C(OCc3ccccc3)C(OCc3ccccc3)C2OCc2ccccc2)cc1 (centres undefined) ; TGI = > 100 µM

Documented TGI of C=C1OC(c2ccccc2NC)=NC12CCCCC2 : > 100 µM

molecule O=C(O)C1CCCCC1C(=O)O.[NH-]C1CCC1.[NH2-].[Pt+2] (centres undefined) , TGI observed: > 100 µM

Item: Nc1ccccc1C#C/C=C\C#Cc1ccccc1 | TGI: 32.4 µM

Please fill in: TGI reported for O=c1c(Cc2ccc(Cl)cc2)nnc2sc(-c3ccc(-c4ccc(F)c(Cl)c4)o3)nn12 = > 100 µM

----------
Please provide measured GI50 for the entries that follow.
# Test system: SK-MEL-28 melanoma
# experimentNotes: NCI tumour cell line growth inhibition, 48 h

Value of measured GI50 for the entry Cc1cc(Cl)ccc1Nc1nc(C(F)(F)F)ccc1C(=O)N/N=C/c1ccc([N+](=O)[O-])cc1 : 1.22 µM

GI50 reported for this compound CCOc1cccc(/C=N/NC(=O)C(=O)Nc2cccc(C(F)(F)F)c2)c1O : 5.51 µM

Note to self: GI50 recorded for OCCNc1ncnc2c1ncn2Cc1cccc(COc2cccc(OCc3cccc(Cn4cnc5c(NCCO)ncnc54)c3)c2)c1 was 14.6 µM

----------
# System: HT29 colon
# experimentNotes: NCI tumour cell line growth inhibition, 48 h
Assignment: determine reported TGI for the given compounds.

response.value for O=C(CCc1cc(O)cc(O)c1)NCCCNC(=O)CCc1cc(O)cc(O)c1 (field: TGI) = > 100 µM

TGI recorded for this compound, CCn1c2ccc(C(=O)CCCN3CCCCC3)cc2c2cc(C(=O)CCCN3CCCCC3)ccc21 , is 4.2 µM

Item: COc1ccc(-c2oc3c(OC)c(OC)c(OC)c(OC)c3c(=O)c2OC)cc1OC | TGI: 64.8 µM

So, COc1cc(C(=O)Oc2ccc3c(c2)OCO3)cc(OC)c1OC ? Its TGI was > 100 µM

Documented TGI of N#C/C(=C/n1c(=S)[nH]c2ccc([N+](=O)[O-])cc21)C(N)=O : > 100 µM

GET /value?item= CC1=NN(c2nc(N)nc(-c3sccc3N)n2)C(C)(C)C1 &field=TGI returns > 100 µM

TGI reported for this compound O=S(=O)(O)c1ccc(N=Nc2ccc(N=Nc3ccc(/C=C/c4ccc(N=[N+]([O-])c5ccc(/C=C/c6ccc(N=Nc7ccc(N=Nc8ccc(S(=O)(=O)O)cc8)cc7)cc6S(=O)(=O)O)c(S(=O)(=O)O)c5)cc4S(=O)(=O)O)c(S(=O)(=O)O)c3)cc2)cc1 : > 100 µM

Field TGI (entry Cc1cc2c(cc1Cl)SC1=NN(C)C(N(C)C)N1S2(=O)=O (configuration not stated) ) reads > 100 µM

For COc1ccccc1CN=C1Nc2ccncc2S(=O)(=O)N1c1ccccc1 the compound record lists TGI as > 100 µM

Memo: COc1ccc(Nc2nc(N)c(C(=O)c3c[nH]c4ccccc34)s2)cc1 , reported TGI: 4.57 µM

The reported TGI of the compound Cc1cc(C)nc(NS(=O)(=O)c2ccc(Nc3c4ccccc4nc4c(C(=O)N5CCN(CCOS(C)(=O)=O)CC5)cccc34)cc2)n1 was > 100 µM

Field TGI (entry C=C1C(=O)O[C@H]2[C@H]1CC/C(COC(=O)c1cc3cc(Cl)ccc3[nH]1)=C\CC[C@@]1(C)O[C@@H]21 ) reads 3.12 µM

----------
Task for the reader: assign each of the following compounds its reported TGI.
# Tested on: M14 melanoma
# experimentNotes: NCI tumour cell line growth inhibition, 48 h

// sample O=C(CCc1cc(O)cc(O)c1)NCCCNC(=O)CCc1cc(O)cc(O)c1 , its TGI was > 100 µM

Given item O=C1C=CC(=O)N1n1c(-c2ccccc2)n[nH]c1=O , the value recorded as its TGI is > 100 µM

The recorded TGI for entry O=C1C=CC=C/C1=C1\N=C(c2ccccc2OCC(=O)c2ccccc2)SS1 equals > 100 µM

----------
Please go through the items and note down their TGI.
# System: 786-0 renal
# experimentNotes: NCI tumour cell line growth inhibition, 48 h

Input COC(=O)C(=O)C(C(=O)C(=O)Nc1cccc(C(C)=O)c1)c1nc2ccccc2[nH]c1=O (stereo not drawn) . Output TGI: > 100 µM

Given item CC(CCC(=O)O)C(=O)O (stereo not drawn) , the value recorded as its TGI is > 100 µM

TGI measured on CCC(O)(Cc1ccc(OC)cc1)c1ccc(OC)cc1 (stereo not drawn) = > 100 µM

----------
Hi there, I'd appreciate the recorded GI50 for every entry that follows.
# System: RXF 393 renal
# experimentNotes: NCI tumour cell line growth inhibition, 48 h

// recorded GI50 for COc1ccc(C2=NN(C=O)C(c3cccc(Nc4ccnc5cc(Cl)ccc45)c3)C2)cc1 (stereo unspecified) : 1660 nM

Lab note: O=C(O)C1CCCCC1C(=O)O.[NH-]C1CCC1.[NH2-].[Pt+2] (stereo unspecified) gave GI50 of 52800 nM

Looking up COc1cc(/C=C2\C(=O)Nc3ccc(N(C)C)cc32)cc(OC)c1OC , I see its GI50 listed as 240 nM

Value of GI50 reported for the compound Cc1[nH]nc(C(=O)n2nc(N)c3ccccc32)c1[N+](=O)[O-] is > 100000 nM

Consider COc1cc(C(=O)Nc2cc3c(cc2Oc2cc(C)cc(C)c2)C(=O)N(C)[C@@H](CC(=O)N(C)O)C(=O)N3)c(Br)c(OC)c1OC . Its measured GI50 is < 3.33 nM

Record summary for COc1cc(-c2n/c(=C\c3c(O)[nH]c4ccc(Cl)cc34)cc3c2=Nc2ccccc2-3)ccc1F : reported GI50 = 1710 nM

----------
Kindly state TGI for each of the entries shown.
# System: HT29 colon
# experimentNotes: NCI tumour cell line growth inhibition, 48 h

// OC1(c2ccccc2)OC(C#Cc2ccccc2)(c2ccccc2)c2ccccc21 (stereo not given) : TGI value = 4.38 µM

Lab note: CN(C)CCCNC(=O)c1cc(NC(=O)c2cc(NC(=O)CCCn3c4ccccc4c4ccccc43)cn2C)cn1C gave TGI of > 100 µM

Reported TGI ( NC(=S)NNc1c([N+](=O)[O-])cnn(-c2ccccc2)c1=O ) = 35.1 µM

Record C/C(CCc1ccccc1)=N\NC(N)=S . Reported TGI: > 100 µM

The compound Cc1sc2nc3c4ccccc4c(NCCCN(C)C)nn3c(=O)c2c1C showed TGI equal to 3.36 µM

Per the records, this compound ( COc1ccc(-c2c3c(n(C4OC(CO)C(O)C(O)C4O)c(=S)c2C#N)CCC3)cc1 (stereo not given) ) has TGI equal to > 100 µM

For this compound ( COC(=O)C1CCc2sc3ncnc(Nc4cn[nH]c4C(=O)Nc4ccc(CN5CCN(C)CC5)cc4)c3c21 (stereo not given) ), measured TGI is 2.91 µM

// recorded TGI for C[C@]12CCC(=O)[C@@H](CCC3=CC(=O)C=CC3=O)[C@@H]1CCC2=O : 82.2 µM

Entry C/C=C(/C)C(=O)OC1CC(C)[C@H]2CC(=O)C(C)=C2CC1C(C)(C)OC(C)=O (stereo not given in full) ; TGI = > 100 µM

Summary for this compound, COc1cc(C(=O)Nc2cc3c(cc2Oc2cc(C)cc(C)c2)C(=O)N(C)[C@@H](CC(=O)N(C)O)C(=O)N3)c(Br)c(OC)c1OC : TGI is < 0.00333 µM

# compound NCCCCNCCCNC(=O)c1nc(-c2nc(CCN)sc2Cl)sc1Cl ; its TGI = > 100 µM

Lab note: Cc1cc(C)c(C(=O)c2no[n+]([O-])c2C(=O)c2c(C)cc(C)c(Br)c2C)c(C)c1Br gave TGI of 27.4 µM

Recorded TGI (compound CSc1cc(=O)n2c3ccccc3c3ccnc1c32 ): > 100 µM

For Cc1[nH]c(=O)nc(NCCNCCO)c1C(=O)Nc1cccc2cc3ccccc3cc12 the compound record lists TGI as > 100 µM

Entry under test: CCC1=C(C(C)=O)[C@@H]2CCCCC[C@@H](C(=O)OC)C2C1=O (stereo not given in full) . Its TGI was > 100 µM

Please fill in: TGI reported for COc1ccc2c(c1)/C(=C\c1c(Cl)[nH]c3ccc(OC)cc13)C(=O)N2 = > 100 µM

TGI reported for this compound COC(=O)C(CC(=O)Nc1ccc(C)cc1)C(=O)C(=O)Nc1ccccc1C(C)C (stereo not given) : > 100 µM

# compound CCP(=O)(OC)C1=CCN(C(=O)OCC[Si](C)(C)C)CC1 (stereo not given) ; its TGI = > 100 µM

Form field TGI, entry CCN(CC)C(=S)Oc1cc2oc(=O)cc(C)c2cc1Cl : > 100 µM

Value of TGI reported for the compound CN(C)CCCNC(=O)c1ccc2c(c1)oc1cc3ccccc3c(=O)n12 is 27.7 µM

Looking up Nc1ccc(C(=O)CC(N)C(=O)O)cc1O (stereo not given) , I found its TGI recorded as > 100 µM

Reported TGI of Cc1ccc(C(=O)N/N=C(\N=Nc2ccccc2)c2ccc(N(C)C)cc2)cc1 : > 100 µM

For reference, reported TGI for NCCCCNc1ccc2c(=O)[nH][nH]c(=O)c2c1 stands at > 100 µM

Value of TGI reported for the compound CC(C)C(CC(=O)OCC(CO)OC(=O)CC(C(C)C)C(C)C)C(C)C (stereo not given) is 32.1 µM

Note to self: TGI recorded for Cc1c(C(=O)NCCN2CCOCC2)cn2ncnc(Oc3ccc(NC(=O)Nc4ccc(Cl)c(C(F)(F)F)c4)cc3)c12 was > 100 µM

TGI for CCOC(=O)c1s/c(=N\Nc2nc3ccccc3cc2C2OCCO2)n(Cc2ccccc2)c1C is > 100 µM

Lab note: measured TGI of CSC(SC)=C(C(=O)O)P(=O)(O)O was > 100 µM

So for Cc1ccc(-c2csc(NC(=O)CN3CCN(c4cc5c(cc4F)c(=O)c(C(=O)O)cn5C4CC4)CC3)n2)cc1 , the logged TGI turned out to be 6.91 µM

Documented TGI of Cc1cc(C)c(S(=O)(=O)N(CCCN)OCCCON(CCCN)S(=O)(=O)c2c(C)cc(C)cc2C)c(C)c1 : 3.22 µM

The reported TGI of the compound CS(=O)(=O)CSCSSCS(C)(=O)=O was > 100 µM

response.value for CC[C@]1(O)C(=O)OCc2c1cc1n(c2=O)Cc2cc3c(N)cccc3nc2-1 (field: TGI) = > 100 µM

Entry COC1C2C=CC(C2)[C@H]1[N+](=O)[O-] (stereo not given in full) ; TGI = > 100 µM

Memo: O=C(/C=C/C(=O)N1CCCC1)N1CCCC1 , reported TGI: > 100 µM

Value of measured TGI for the entry CCc1c(CNc2ccc(C(=O)NC(CC(=O)O)C(=O)O)cc2)ccc2nc(N)nc(N)c12 (stereo not given) : > 1000 µM

// field: TGI; key: Cc1c(CN2CCN(C)CC2)c(CN2CCN(C)CC2)c(C)n1-c1ccc(Cl)cc1 ; value = 42.7 µM
